targetDesc: F508delCFTR (Homo sapiens, UniProt P13569, DEL508-508)
Construct: expressed in transfected cells; host or cells: CFBE41o- human lung-derived epithelial cells (CFBE4lo-F508delCFTR-HRP), doxycycline-inducible
Sequence (P13569 with tags, fused parts or gaps DEL508-508): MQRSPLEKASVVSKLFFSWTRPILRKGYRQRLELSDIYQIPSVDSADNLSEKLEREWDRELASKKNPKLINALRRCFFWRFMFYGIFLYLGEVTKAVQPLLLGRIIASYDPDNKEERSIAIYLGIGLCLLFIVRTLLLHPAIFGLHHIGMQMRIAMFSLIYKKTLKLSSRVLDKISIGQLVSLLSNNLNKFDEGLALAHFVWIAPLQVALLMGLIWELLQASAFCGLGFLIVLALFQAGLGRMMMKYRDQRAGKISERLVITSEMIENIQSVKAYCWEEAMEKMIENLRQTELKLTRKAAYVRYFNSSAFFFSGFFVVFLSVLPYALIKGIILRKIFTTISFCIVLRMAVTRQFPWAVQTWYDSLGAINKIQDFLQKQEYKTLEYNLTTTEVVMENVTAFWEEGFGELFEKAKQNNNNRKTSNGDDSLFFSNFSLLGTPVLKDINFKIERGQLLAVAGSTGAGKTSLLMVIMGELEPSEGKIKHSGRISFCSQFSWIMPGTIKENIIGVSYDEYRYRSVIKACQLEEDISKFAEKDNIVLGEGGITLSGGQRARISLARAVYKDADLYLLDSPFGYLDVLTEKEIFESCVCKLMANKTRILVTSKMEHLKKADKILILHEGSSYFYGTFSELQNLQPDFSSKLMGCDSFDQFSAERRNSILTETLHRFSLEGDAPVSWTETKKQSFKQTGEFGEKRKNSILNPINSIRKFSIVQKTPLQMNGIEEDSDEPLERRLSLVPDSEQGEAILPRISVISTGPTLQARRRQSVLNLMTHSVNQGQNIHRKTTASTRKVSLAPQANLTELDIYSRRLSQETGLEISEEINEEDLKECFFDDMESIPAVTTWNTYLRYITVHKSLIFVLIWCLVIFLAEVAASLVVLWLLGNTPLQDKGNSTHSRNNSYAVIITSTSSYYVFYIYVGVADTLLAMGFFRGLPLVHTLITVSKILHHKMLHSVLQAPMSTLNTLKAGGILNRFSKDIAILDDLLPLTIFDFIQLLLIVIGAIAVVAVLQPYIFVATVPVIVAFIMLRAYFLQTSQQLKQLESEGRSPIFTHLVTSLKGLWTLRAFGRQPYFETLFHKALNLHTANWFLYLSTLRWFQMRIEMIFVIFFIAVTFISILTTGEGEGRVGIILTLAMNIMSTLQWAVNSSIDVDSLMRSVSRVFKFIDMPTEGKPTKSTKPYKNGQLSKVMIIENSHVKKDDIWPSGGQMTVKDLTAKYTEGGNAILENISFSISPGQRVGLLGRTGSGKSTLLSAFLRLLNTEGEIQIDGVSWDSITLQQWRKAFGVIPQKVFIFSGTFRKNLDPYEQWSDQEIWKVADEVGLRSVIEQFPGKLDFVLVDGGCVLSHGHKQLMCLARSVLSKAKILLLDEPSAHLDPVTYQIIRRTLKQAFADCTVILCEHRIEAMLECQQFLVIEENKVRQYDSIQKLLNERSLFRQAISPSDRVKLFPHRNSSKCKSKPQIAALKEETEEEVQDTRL
runDescription: Cell Surface Expression-Horse Radish Peroxidase (CSE-HRP) Assay
Format: cell-based
conditions: test compound without co-corrector; read-out: EC50 (without co-corrector)
Give measured EC50 for each item. Keep answers brief.

Sample records with EC50:
| compound | targetDesc | recordedMetric | assayValue |
| --- | --- | --- | --- |
| CCC(C)c1cnc(OC)c(CN[C@H]2[C@H](C(C)(C)C)[C@@H](C(=O)O)N(C(=O)C3CCCCC3)[C@H]2c2ccccc2)c1 (stereo partly drawn) | F508delCFTR (Homo sapiens, UniProt P13569, DEL508-508) | EC50 | 1000 to 10000 nM |
| COc1ccc(C2(C)CCC2)cc1CN[C@H]1[C@H](C(C)(C)C)[C@@H](C(=O)O)N(C(=O)[C@H]2CCCCO2)[C@H]1c1cccnc1N(C)C | F508delCFTR (Homo sapiens, UniProt P13569, DEL508-508) | EC50 | 1000 to 10000 nM |
| COc1ccc(C(C)(C)C)cc1CN[C@H]1[C@H](C(C)(C)C)[C@@H](C(=O)O)N(C(=O)c2cc(C#N)ccc2OC)[C@H]1c1ccccc1 | F508delCFTR (Homo sapiens, UniProt P13569, DEL508-508) | EC50 | 1000 to 10000 nM |
| COc1ccc(C(C)(C)C)cc1CN[C@H]1[C@H](C(C)(C)C)[C@@H](C(=O)O)N(C(=O)OCc2ccccc2Cl)[C@H]1c1ccccc1 | F508delCFTR (Homo sapiens, UniProt P13569, DEL508-508) | EC50 | < 1000 nM |
| COc1ccc(C(C)(C)C)cc1CN[C@H]1[C@H](C(C)(C)C)[C@@H](C(=O)O)N(C(=O)C2CCc3ccccc3O2)[C@H]1c1ccccc1 (single isomer, unassigned) | F508delCFTR (Homo sapiens, UniProt P13569, DEL508-508) | EC50 | 1000 to 10000 nM |

Now consider a different compound.
Query block: Reported EC50, compound "COc1ccc(Br)nc1CN[C@H]1[C@H](C(C)(C)C)[C@@H](C(=O)O)N(C(=O)C2CCCCC2)[C@H]1c1ccccc1" : ____
Result block: 1000 to 10000 nM

* * *

targetDesc: F508delCFTR (Homo sapiens, UniProt P13569, DEL508-508)
Construct: expressed in transfected cells; host or cells: CFBE41o- human lung-derived epithelial cells (CFBE4lo-F508delCFTR-HRP), doxycycline-inducible
runDescription: Cell Surface Expression-Horse Radish Peroxidase (CSE-HRP) Assay
Assay type: cell-based
conditions: test compound without co-corrector; read-out: EC50 (without co-corrector)
pEC50: −log10 of the molar value.
Exercise: state measured pEC50 for each of the molecules provided.

Reference set, count: 3
| molecule | pEC50 |
| --- | --- |
| COc1ccc(C(C)(C)C)cc1CN[C@H]1[C@H](C(C)(C)C)[C@@H](C(=O)O)N(C(=O)OC(C)C)[C@H]1c1cccnc1OC(C)C | 5.00 to 6.00 |
| COc1ncc(C(F)(F)F)cc1CN[C@H]1[C@H](C(C)(C)C)[C@@H](C(=O)O)N(C(=O)[C@H]2CCCCO2)[C@H]1c1cccnc1N(C)C | 5.00 to 6.00 |
| COc1ccc(C(C)(C)C)cc1CN[C@H]1[C@H](C(C)(C)C)[C@@H](C(=O)O)N(C(=O)C2Cc3ccccc3CO2)[C@H]1c1cccnc1N(C)C (single isomer, unassigned) [II-480] | 5.00 to 6.00 |

Give pEC50 for all molecules that follow.
1. CCc1cc2ccc(Cl)cc2nc1N[C@H]1[C@H](C(C)(C)C)[C@@H](C(=O)O)N(C(=O)C2CCCCC2)[C@H]1c1ccccc1
2. COc1ccc(C(C)(C)C)cc1CN[C@H]1[C@H](C(C)(C)C)[C@@H](C(=O)O)N(C(=O)C2CCCCC2)[C@H]1c1cccn(C)c1=O (racemic)
3. COc1ccc(C(C)(C)C)cc1CN[C@H]1[C@H](C(C)(C)C)[C@@H](C(=O)O)N(C(=O)Cc2ccc(F)c(F)c2)[C@H]1c1ccccc1
4. COc1ccc(C(C)(C)C)cc1CN[C@H]1[C@H](C(C)(C)C)[C@@H](C(=O)O)N(C(=O)CN2Cc3ccccc3C2)[C@H]1c1ccccc1
5. COc1ccc(CC2CCCCC2)cc1CN[C@H]1[C@H](C(C)(C)C)[C@@H](C(=O)O)N(C(=O)C2CCCCC2)[C@H]1c1ccccc1
6. COc1ccc(C(C)(C)C)cc1CN[C@H]1[C@H](C(C)(C)C)[C@@H](C(=O)O)N(C(=O)[C@@H]2CCCO2)[C@H]1c1ccccc1C1CC1
7. COc1nc(C(C)(C)C)ccc1CN[C@H]1[C@H](C(C)(C)C)[C@@H](C(=O)O)N(C(=O)OC(C)C)[C@H]1c1ccccc1C(C)C

Result block:
5.00 to 6.00
< 5.00
5.00 to 6.00
5.00 to 6.00
> 6.00
5.00 to 6.00
> 6.00

I have 3 molecules here; please give me pEC50 for each one.
1. Cc1cc(CN[C@H]2[C@H](C(C)(C)C)[C@@H](C(=O)O)N(C(=O)C3CCCCC3)[C@H]2c2ccccc2)cc(C)c1OC(F)F
2. COc1ccc(C(C)(C)C)cc1CN[C@H]1[C@H](C(C)(C)C)[C@@H](C(=O)O)N(C(=O)C2CC2(F)F)[C@H]1c1ccccc1 (stereo partly shown)
3. COc1ncc(C(F)(F)F)cc1CN[C@H]1[C@H](C(C)(C)C)[C@@H](C(=O)O)N(C(=O)C2CCCCC2)[C@H]1c1ccccc1OC(F)F

Result block:
["5.00 to 6.00", "5.00 to 6.00", "5.00 to 6.00"]
